- Tested system: NleB1 (Escherichia coli)
- Construct: GST-EHEC-NleB1 in pET42a (GST/His tagged), expressed in E. coli BL21 (DE3), nickel purified; some tag cleavage noted
- Experimental conditions: 160 µM; inhibitor
Lab note: anything with % NleB1 inhibition (µM compound) / 160 at or over 80% counts as Criterion met; the rest go in Criterion not met.

Here are 3 molecules together with their reported answers.
O=Cc1cccc(OCc2cn(CC(=O)c3ccc(O)cc3)nn2)c1 [KUC104114N]: Criterion met
Cc1ccc([C@H]2CC[C@]3(CCC(=O)N3CCOC(=O)Nc3cccc(C#N)c3)CC2)cc1 [KUC111012N]: Criterion not met
CC(=O)c1ccc(OCc2cn(CC(=O)c3ccc(O)cc3)nn2)c(F)c1 [KUC104088N]: Criterion met

With those in mind, consider the next molecule.
Q) State whether the measured % NleB1 inhibition (µM compound) / 160 reaches 80%, counting equality as reaching it, for O=C(NC1CCC(=O)N(CCSc2ccccc2)CC1)OCc1ccccc1 (stereo not drawn) [KUC102830N]
A) Criterion not met
